- Test system: Venturia inaequalis
- protocol-description: Apple scab control on sprayed apple seedlings (Example 82)
- Type: in vivo
- details: Venturia inaequalis, 100 ppm spray, day before inoculation
I'd appreciate it if you could supply pest or weed control at 100 ppm values for the items below.
Answers are plain numbers, in %.

| compound | system-tested | display-unit | pest or weed control at 100 ppm |
| --- | --- | --- | --- |
| CCCC[Si](C)(Cn1cncn1)c1ccc(-c2ccccc2)cc1 (stereo not drawn) | Venturia inaequalis | % | 80 |
| C[Si](C)(Cn1cncn1)c1ccc(Cl)c(Cl)c1 | Venturia inaequalis | % | 80 |

Each of the following entries comes with a recorded value; kindly state pest or weed control at 100 ppm for each.
1. C[Si](C)(Cn1cncn1)c1ccc(C(F)(F)F)cc1
2. Clc1ccc([Si](Cn2cncn2)(c2ccc(Cl)cc2)c2ccc(Cl)cc2)cc1

Result ::
1: 0; 2: 0

Below are 5 compounds. Give each one its pest or weed control at 100 ppm.
1. C[Si](C)(Cn1cncn1)c1ccc(Cl)cc1
2. C[Si](Cn1cncn1)(c1ccc(Cl)cc1)c1ccccc1Cl (stereo not drawn)
3. C[Si](C)(Cn1cncn1)c1ccc(-c2ccc(Br)cc2)cc1
4. Fc1ccc([Si](Cn2cncn2)(c2ccc(F)cc2)c2ccc(F)cc2)cc1
5. CC(C)O[Si](Cn1cncn1)(OC(C)C)c1ccccc1

Result ::
1: 100; 2: 90; 3: 100; 4: 60; 5: 0

Could you report pest or weed control at 100 ppm for every entry in the following list?
1. CCCC[Si](C)(Cn1cncn1)c1ccc(F)cc1 (stereo not drawn)
2. CC(C)O[Si](C)(Cn1cncn1)c1ccccc1 (stereo not drawn)
3. COc1ccccc1[Si](C)(C)Cn1cncn1

Result ::
100
0
80
